Parameter: IC50. Scope: all listed entries.
# Experimental Target: pY705-STAT3 in PBMC (Homo sapiens, UniProt P40763)
# Construct: Cryopreserved Peripheral Blood Mononuclear Cells (PBMC) are from AllCells; host or cells: cryopreserved PBMC
# Sequence (P40763 whole entry): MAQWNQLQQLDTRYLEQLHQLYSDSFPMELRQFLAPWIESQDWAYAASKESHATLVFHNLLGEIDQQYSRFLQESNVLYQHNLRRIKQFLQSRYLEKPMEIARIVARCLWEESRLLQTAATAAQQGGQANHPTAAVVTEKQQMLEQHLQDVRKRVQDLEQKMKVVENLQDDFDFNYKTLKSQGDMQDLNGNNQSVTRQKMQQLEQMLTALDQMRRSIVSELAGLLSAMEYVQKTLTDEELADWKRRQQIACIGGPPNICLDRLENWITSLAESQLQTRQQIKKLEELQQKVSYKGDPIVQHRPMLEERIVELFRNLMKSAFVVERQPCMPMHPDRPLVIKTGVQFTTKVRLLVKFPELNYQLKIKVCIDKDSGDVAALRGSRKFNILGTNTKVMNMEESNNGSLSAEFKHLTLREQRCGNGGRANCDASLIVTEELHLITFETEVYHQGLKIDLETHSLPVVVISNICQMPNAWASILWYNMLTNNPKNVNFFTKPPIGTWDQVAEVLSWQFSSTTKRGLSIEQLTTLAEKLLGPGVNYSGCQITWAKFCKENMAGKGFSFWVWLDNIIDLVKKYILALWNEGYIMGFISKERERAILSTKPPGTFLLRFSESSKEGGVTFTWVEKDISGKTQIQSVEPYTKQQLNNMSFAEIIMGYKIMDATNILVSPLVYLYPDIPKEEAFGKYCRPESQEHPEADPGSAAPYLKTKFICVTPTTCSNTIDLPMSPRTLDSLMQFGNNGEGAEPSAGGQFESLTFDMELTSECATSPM
# Test Method Notes: MSD-pSTAT-PBMC Assay (pSTAT3, IL-6 stimulated)
# Assay type: cell-based
# Test Parameters: PBMC, compound 3 hrs, then 10 ng/mL IL-6 for 10 min; Table 115; read-out: STAT3
Measure: IC50

• CC(C)CC(=O)SCCOP(=O)(OCCSC(=O)CC(C)C)C(F)(F)c1ccc2sc(C(=O)N[C@H]3CCC[C@H]4CC[C@@H](C(=O)N5CC(c6nncn6C)C5)N4C3=O)cc2c1 = < 100 nM
• CCCOC(=O)[C@H](C)NP(=O)(Cc1ccc2sc(C(=O)N[C@H]3CCC[C@H]4CC[C@@H](C(=O)N5CC(c6cccnc6)C5)N4C3=O)cc2c1)OCC (some centres unmarked) = 100 to 1000 nM
• CCCOC(=O)[C@H](C)NP(=O)(Cc1ccc2sc(C(=O)N[C@H]3CC[C@@H](C)C[C@H]4CC[C@@H](C(=O)N5CC(c6cnccc6C)C5)N4C3=O)cc2c1)Oc1ccccc1 (some centres unmarked) = < 100 nM
• CCCOC(=O)[C@H](C)NP(=O)(Cc1ccc2sc(C(=O)N[C@H]3CCC[C@H]4CC[C@@H](C(=O)N5CC(c6cccnc6)C5)N4C3=O)cc2c1)N1CCOCC1 (some centres unmarked) = > 3000 nM
• CCCOC(=O)[C@H](C)N[P@](=O)(Oc1ccccc1)[C@H](F)c1ccc2sc(C(=O)N[C@H]3C[C@@H](C)C[C@H]4CC[C@@H](C(=O)N5CC(c6cnccc6C)C5)N4C3=O)cc2c1 (single isomer, unassigned) = < 100 nM

----------
# Experimental Target: Recombinant STAT6 protein (STAT6 (W123-T658)) (Homo sapiens, UniProt P42226)
# Construct: Recombinant STAT6 protein (STAT6 (W123-T658))
# Sequence (P42226 123-658): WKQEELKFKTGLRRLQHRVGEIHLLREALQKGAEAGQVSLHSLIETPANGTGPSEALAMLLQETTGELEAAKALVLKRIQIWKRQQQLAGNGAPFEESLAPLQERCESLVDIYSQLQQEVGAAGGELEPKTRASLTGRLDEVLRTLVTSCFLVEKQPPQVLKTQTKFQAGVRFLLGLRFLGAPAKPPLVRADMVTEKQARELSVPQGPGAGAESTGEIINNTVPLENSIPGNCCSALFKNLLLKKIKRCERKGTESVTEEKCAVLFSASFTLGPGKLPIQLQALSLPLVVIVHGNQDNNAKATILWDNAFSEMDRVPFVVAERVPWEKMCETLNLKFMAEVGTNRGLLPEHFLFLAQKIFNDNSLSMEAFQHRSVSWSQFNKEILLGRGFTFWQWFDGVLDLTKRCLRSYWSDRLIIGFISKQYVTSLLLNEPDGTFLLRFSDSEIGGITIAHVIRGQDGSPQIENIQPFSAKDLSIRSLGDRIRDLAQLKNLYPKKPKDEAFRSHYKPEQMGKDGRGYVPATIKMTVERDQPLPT
# Test Method Notes: STAT6 Fluorescence Polarization (FP) Assay
# Format: binding
# Test Parameters: STAT6 (W123-T658) 250 nM, probe 5-FAM-Ap[…]-NH2 2 nM, 45-minute incubation; read-out: STAT6 (FP assay IC50 class)
Parameter: IC50. Scope: all listed entries.
Measure: IC50

* O=C(N[C@H]1CCC[C@H]2CC[C@@H](C(=O)N3CC(C4COC4)C3)N2C1=O)c1cc2cc(C(F)(F)P(=O)(O)O)ccc2s1 | 3 to 30 µM
* CN(CCc1cc[nH]c(=O)c1)C(=O)[C@@H]1CC[C@@H]2CCCC[C@H](NC(=O)c3cc4cc(C(F)(F)P(=O)(O)O)ccc4s3)C(=O)N21 | 0.3 to 3 µM
* CS(=O)(=O)NC1CN(C(=O)[C@@H]2CC[C@@H]3CCCC[C@H](NC(=O)c4cc5cc(C(F)(F)P(=O)(O)O)ccc5s4)C(=O)N32)C1 | 0.3 to 3 µM
* COc1c(C2CN(C(=O)[C@@H]3CC[C@@H]4CCC[C@H](NC(=O)c5cc6cc(C(F)P(=O)(O)O)ccc6s5)C(=O)N43)C2)ccnc1C#N (stereo partly drawn) | 3 to 30 µM
* Cc1ccncc1C1CN(C(=O)[C@@H]2CC[C@@H]3C[C@H](C)CC[C@H](NC(=O)c4cc5cc(CP(=O)(O)O)ccc5s4)C(=O)N32)C1 | 3 to 30 µM
* O=C(N[C@H]1CCC[C@H]2CC[C@@H](C(=O)N3C(=O)N(c4cccnc4)C(=O)C34CC4)N2C1=O)c1cc2cc([C@H](F)P(=O)(O)O)ccc2s1 | ≤ 0.3 µM

----------
# Experimental Target: pY705-STAT3 in PBMC (Homo sapiens, UniProt P40763)
# Construct: Cryopreserved Peripheral Blood Mononuclear Cells (PBMC) are from AllCells; host or cells: cryopreserved PBMC
# Test Method Notes: MSD-pSTAT-PBMC Assay (pSTAT3, IL-6 stimulated)
# Assay type: cell-based
# Test Parameters: PBMC, compound 3 hrs, then 10 ng/mL IL-6 for 10 min; Table 1114; read-out: pSTAT3
pIC50: −log10 of the molar value.
Parameter: pIC50. Scope: all listed entries.
Measure: pIC50

* CC(C)(C)C(=O)OCOP(=O)(OCOC(=O)C(C)(C)C)C(F)(F)c1ccc2sc(C(=O)N[C@@]3(C)CCCC[C@H]4CC[C@@H](C(=O)N5CC(c6ccccn6)C5)N4C3=O)cc2c1 [Compound 150] | 6.00 to 7.00
* CC(C)CC(=O)SCCOP(=O)(OCCSC(=O)CC(C)C)C(F)(F)c1ccc2ccc(C(=O)N[C@H]3CCCCC[C@H]4[C@H](O)C[C@@H](C(=O)N5CC(C#N)C(c6cc[nH]c(=O)c6)C5)N4C3=O)cc2c1 (single isomer, unassigned) [Compound 167] | < 5.52

----------
Parameter: pIC50. Scope: all listed entries.
# Experimental Target: Recombinant STAT6 protein (STAT6 (W123-T658)) (Homo sapiens, UniProt P42226)
# Construct: Recombinant STAT6 protein (STAT6 (W123-T658))
# Test Method Notes: STAT6 Fluorescence Polarization (FP) Assay
# Assay type: binding
# Test Parameters: STAT6 250 nM, probe 5-FAM-Ap[…]-NH2 2 nM, 45-minute incubation; read-out: STAT6 (FP assay IC50)
pIC50: −log10 of the molar value.
Measure: pIC50

- C[C@H]1C[C@H]2CC[C@@H](C(=O)N3CC[C@@H](c4ccccc4)C3)N2C(=O)[C@@H](NC(=O)c2cc3cc(C(F)(F)P(=O)(O)O)ccc3s2)CC1O (stereo in doubt) [Compound 101]: 5.52 to 6.52
- O=C(N[C@H]1C=CC[C@H]2CC[C@@H](C(=O)Nc3ccc(-c4ccccc4)cc3)N2C1=O)c1cc2cc(C(F)(F)P(=O)(O)O)ccc2s1 [Compound 97]: 5.52 to 6.52
- O=C(N[C@H]1CCCC[C@H]2CC[C@@H](C(=O)N3CC(Cc4ccccc4)C3)N2C1=O)c1cc2cc(C(F)(F)P(=O)(O)O)ccc2s1 [Compound 36]: 5.52 to 6.52
- N#C[C@H]1CN(C(=O)[C@@H]2CC[C@@H]3/C=C\CC[C@H](NC(=O)c4cc5cc(C(F)(F)P(=O)(O)O)ccc5s4)C(=O)N32)C[C@@H]1c1ccccc1 (relative stereo) [Compound 27]: ≥ 6.52
- O=C(N[C@H]1CCC[C@H]2CC[C@@H](C(=O)N3CC(c4ccccn4)C3)N2C1=O)c1cc2cc(C(F)(F)P(=O)(O)O)ccc2s1 [Compound 108]: 5.52 to 6.52
- N#C[C@@H]1CN(C(=O)[C@@H]2CC[C@@H]3CCCC[C@H](NC(=O)c4cc5cc(C(F)(F)P(=O)(O)O)ccc5s4)C(=O)N32)C[C@H]1C1CC1 (relative stereo) [Compound 102]: 5.52 to 6.52
- C[C@@]1(O)CC[C@H]2CC[C@@H](C(=O)N3CC(C(=O)N4CCOCC4)C3)N2C(=O)[C@@H](NC(=O)c2cc3cc(C(F)(F)P(=O)(O)O)ccc3s2)C1 [Compound 17]: 4.52 to 5.52
- O=C(N[C@H]1CC[C@@H](O)C[C@H]2CC[C@@H](C(=O)N3CC(C(=O)N4CCOCC4)C3)N2C1=O)c1cc2cc(C(F)(F)P(=O)(O)O)ccc2s1 [Compound 2]: 4.52 to 5.52
- O=C(N[C@H]1CCCC[C@H]2CC[C@@H](C(=O)N3CC4(CNS(=O)(=O)C4)C3)N2C1=O)c1cc2cc(C(F)(F)P(=O)(O)O)ccc2s1 [Compound 71]: 5.52 to 6.52
- O=C(N[C@H]1C[C@H](O)CC[C@H]2CC[C@@H](C(=O)N3CC(C(=O)N4CCOCC4)C3)N2C1=O)c1cc2cc(C(F)(F)P(=O)(O)O)ccc2s1 [Compound 3]: 4.52 to 5.52
- O=C(N[C@H]1CCCC[C@H]2CC[C@@H](C(=O)N3CCN(C(=O)c4cn[nH]c4)CC3)N2C1=O)c1cc2cc(C(F)(F)P(=O)(O)O)ccc2s1 [Compound 118B]: 5.52 to 6.52

----------
# Experimental Target: Recombinant STAT6 protein (STAT6 (W123-T658)) (Homo sapiens)
# Construct: Recombinant STAT6 protein (STAT6 (W123-T658))
# Test Method Notes: STAT6 Fluorescence Polarization (FP) Assay
# Type: binding
# Test Parameters: STAT6 (W123-T658) 250 nM, probe 5-FAM-Ap[…]-NH2 2 nM, 45-minute incubation; read-out: STAT6 (FP assay IC50 class)
Measure: IC50

• O=C(N[C@H]1CCCC[C@H]2CC[C@@H](C(=O)NCc3cnc4[nH]cnc4c3)N2C1=O)c1cc2cc(C(F)P(=O)(O)O)ccc2s1 (stereo partly drawn) = 3 to 30 µM
• COc1ccncc1C1CN(C(=O)[C@@H]2CC[C@@H]3C[C@@H](C)C[C@H](NC(=O)c4cc5cc([C@H](F)P(=O)(O)O)ccc5s4)C(=O)N32)C1 = 3 to 30 µM
• O=C(N[C@H]1CCC[C@H]2CC[C@@H](C(=O)N3CC(c4cnccc4F)C3)N2C1=O)c1cc2cc(C(F)(F)P(=O)(O)O)ccc2s1 = 0.3 to 3 µM

Sourced from patent US20250215029A1
